Target: Outer-membrane lipoprotein carrier protein (Escherichia coli (strain K12), UniProt P61316)
Sequence (P61316 whole entry): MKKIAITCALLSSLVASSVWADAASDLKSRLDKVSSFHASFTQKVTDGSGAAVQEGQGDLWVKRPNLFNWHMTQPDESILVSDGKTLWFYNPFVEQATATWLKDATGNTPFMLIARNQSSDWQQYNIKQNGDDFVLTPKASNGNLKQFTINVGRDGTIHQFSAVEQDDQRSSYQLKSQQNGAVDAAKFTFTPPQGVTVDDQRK
Test: Binding affinity to Escherichia coli K-12 lolA expressed in Escherichia coli BL21(AI) by NMR spectrometry
endpoint: pKd
Keep it numeric: pKd is minus log10 of the concentration in mol/L.

Memo: COc1ccc(CCN2CN=C(SCc3ccc(Cl)cc3)NC2)cc1OC , reported pKd: 5.12
